system: Hepatotoxicity; assay: FDA HLAED, liver enzyme composite activity; settings: human
property.label: Composite Activity - Active

>>> measured_number("CC(C)(S)[C@@H](N)C(=O)O")
0
>>> measured_number("NC(=O)NO [HYDROXYUREA]")
0
>>> measured_number("O=P1(NCCCl)OCCCN1CCCl (stereo unspecified) [IFOSFAMIDE]")
1
>>> measured_number("CO[C@@]1(NC(=O)C2SC(=C(C(N)=O)C(=O)O)S2)C(=O)N2C(C(=O)O)=C(CSc3nnnn3C)CS[C@@H]21 (stereo partly specified)")
0
>>> measured_number("CCCCC(C)(O)C/C=C/[C@H]1[C@H](O)CC(=O)[C@@H]1CCCCCCC(=O)OC (stereo partly specified)")
0
>>> measured_number("CCOC(=O)Nc1ccc2c(c1)N(C(=O)CCN1CCOCC1)c1ccccc1S2")
1
>>> measured_number("CC(=O)N1CCN(c2ccc(OCC3COC(Cn4ccnc4)(c4ccc(Cl)cc4Cl)O3)cc2)CC1 (stereo unspecified)")
3
>>> measured_number("Cc1nnc2n1-c1ccc(Cl)cc1C(c1ccccc1Cl)=NC2")
0
>>> measured_number("CCC(=O)[C@@]1(C)[C@H](C)C[C@H]2[C@@H]3CCC4=CC(=O)C=C[C@]4(C)[C@H]3[C@@H](O)C[C@@]21C [RIMEXOLONE]")
0
>>> measured_number("CO/N=C(\\C(=O)N[C@@H]1C(=O)N2C(C(=O)O)=C(COC(C)=O)CS[C@H]12)c1csc(N)n1")
1
>>> measured_number("Nc1nc(Cl)nc2c1ncn2[C@H]1C[C@H](O)[C@@H](CO)O1")
0

Values were extracted from ChEMBL document CHEMBL1697781.
